The compounds listed here are annotated with their pIC50.
- Target: human 5-HT2A receptor (Homo sapiens)
- Assay method text: 5-HT2A FLIPR assay, antagonism of DOI calcium response in CHO cells
Friendly reminder that pIC50 comes from taking -log10 of the concentration in mol/L.

As a guide, the following entries are already answered.
# Compound, pIC50
rows = [
    ("CCN(CCc1cccc2[nH]cc(S(=O)(=O)c3ccccc3)c12)C(C)C", 6.71),
    ("NCCc1cccc2[nH]cc(S(=O)(=O)c3ccccc3)c12", 4.85),
    ("CC1CCCCN1CCc1cccc2[nH]cc(S(=O)(=O)c3ccccc3)c12 (stereo not shown)", 7.14),
    ("CC1CCCN(CCc2cccc3[nH]cc(S(=O)(=O)c4ccccc4)c23)C1 (stereo not shown)", 7.14),
    ("O=S(=O)(c1ccccc1)c1c[nH]c2cccc(CCNC3CCC3)c12", 6.22),
]

Prompt: Query for human 5-HT2A receptor (Homo sapiens): what pIC50 does the record show for `O=S(=O)(c1ccccc1)c1c[nH]c2cccc(CCNC3CC3)c12` ?
Completion: 6.34

Prompt: Query for human 5-HT2A receptor (Homo sapiens): what pIC50 does the record show for `CN(CCc1cccc2[nH]cc(S(=O)(=O)c3ccccc3)c12)C1CCCCC1` ?
Completion: 6.38

----------
- Target: human cloned 5-HT6 receptors (Homo sapiens)
- Construct: expressed in transfected cells; host or cells: HeLa cells
- Sequence (P50406 whole entry): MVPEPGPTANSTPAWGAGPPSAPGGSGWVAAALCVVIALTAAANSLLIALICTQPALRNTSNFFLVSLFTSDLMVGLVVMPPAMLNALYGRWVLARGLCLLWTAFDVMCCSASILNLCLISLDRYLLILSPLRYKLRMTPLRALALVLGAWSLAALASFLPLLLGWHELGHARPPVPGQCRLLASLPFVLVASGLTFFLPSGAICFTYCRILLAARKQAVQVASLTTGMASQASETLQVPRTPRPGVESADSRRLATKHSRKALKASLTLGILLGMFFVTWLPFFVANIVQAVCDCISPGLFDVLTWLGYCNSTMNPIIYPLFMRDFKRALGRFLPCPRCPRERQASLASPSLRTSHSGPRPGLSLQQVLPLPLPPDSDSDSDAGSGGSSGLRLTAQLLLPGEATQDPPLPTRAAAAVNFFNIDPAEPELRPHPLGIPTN
- Assay method text: 5-HT6 binding affinity, [3H]-LSD displacement on membranes of Hela cells
- Details: Table 1; 5-HT6 binding, at 1 micromole; read-out: % inhibition at 1 micromole
The compounds listed here are annotated with their inhibition at 1 µM.
Number only, in %; omit the unit.

As a guide, the following entries are already answered.
# Compound, Measured metric, Experimental result
measured = [
    ("CNCCc1cccc2[nH]cc(S(=O)(=O)c3cccc(F)c3)c12", "inhibition at 1 µM", 61),
    ("O=S(=O)(c1ccccc1)c1c[nH]c2cc(CCNC3CCCCC3)ccc12", "inhibition at 1 µM", 51),
    ("CN(CCO)CCc1cccc2[nH]cc(S(=O)(=O)c3cccc(F)c3)c12", "inhibition at 1 µM", 73),
    ("CC(C)NCCc1cccc2[nH]cc(S(=O)(=O)c3cccc(F)c3)c12", "inhibition at 1 µM", 58),
    ("CN(CCc1cccc2[nH]cc(S(=O)(=O)c3cccc(F)c3)c12)C1CCCCC1", "inhibition at 1 µM", 66),
    ("CN(C)CCc1cccc2[nH]cc(S(=O)(=O)c3ccccc3)c12", "inhibition at 1 µM", 75),
]

Prompt: Which inhibition at 1 µM reading was recorded for the compound `O=S(=O)(c1ccccc1)c1c[nH]c2cc(CCN3CCCCC3)ccc12` ?
Completion: 79

Prompt: Which inhibition at 1 µM reading was recorded for the compound CC(NCCc1ccc2c(S(=O)(=O)c3ccccc3)c[nH]c2c1)C(C)(C)C (stereo not drawn) ?
Completion: 55

Prompt: Which inhibition at 1 µM reading was recorded for the compound `CC(C)(C)CNCCc1ccc2c(S(=O)(=O)c3ccccc3)c[nH]c2c1` ?
Completion: 67

Prompt: Which inhibition at 1 µM reading was recorded for the compound `CC(C)(C)CNCCc1cccc2[nH]cc(S(=O)(=O)c3cccc(F)c3)c12` ?
Completion: 74

Prompt: Which inhibition at 1 µM reading was recorded for the compound `CCN(CC)CCc1cccc2[nH]cc(S(=O)(=O)c3ccccc3)c12` ?
Completion: 35

----------
The compounds listed here are annotated with their inhibition at 1 µM.
- Target: human 5-HT2A receptor (Homo sapiens, UniProt P28223)
- Sequence (P28223 whole entry): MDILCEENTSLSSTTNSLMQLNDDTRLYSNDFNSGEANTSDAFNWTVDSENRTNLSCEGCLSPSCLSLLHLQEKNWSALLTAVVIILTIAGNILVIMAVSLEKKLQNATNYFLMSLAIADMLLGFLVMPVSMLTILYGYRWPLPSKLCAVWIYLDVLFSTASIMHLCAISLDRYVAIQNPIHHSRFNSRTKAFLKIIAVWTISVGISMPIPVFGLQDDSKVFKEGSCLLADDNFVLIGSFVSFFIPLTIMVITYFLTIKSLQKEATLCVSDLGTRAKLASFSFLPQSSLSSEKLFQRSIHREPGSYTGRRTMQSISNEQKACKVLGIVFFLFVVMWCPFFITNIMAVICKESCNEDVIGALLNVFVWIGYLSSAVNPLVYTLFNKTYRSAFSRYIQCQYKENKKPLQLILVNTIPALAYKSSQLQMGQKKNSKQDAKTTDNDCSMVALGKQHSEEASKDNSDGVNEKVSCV
- Assay method text: 5-HT2A FLIPR assay, antagonism of DOI calcium response in CHO cells
- Details: CHO, read-out: 5-HT2A % Inhibition @ 1 uM
Number only, in %; omit the unit.

As a guide, the following entries are already answered.
# Compound, Experimental result
data = [
    ("O=S(=O)(c1ccccc1)c1c[nH]c2cccc(CCNCC3CCCO3)c12 (centres unmarked) [Example 51]", 94),
    ("CN1CCN(CCc2cccc3[nH]cc(S(=O)(=O)c4ccccc4)c23)CC1 [Example 59]", 13),
    ("CCN(CC)CCc1cccc2[nH]cc(S(=O)(=O)c3ccccc3)c12 [Example 42]", 99),
]

Prompt: Which inhibition at 1 µM reading was recorded for the compound O=S(=O)(c1ccccc1)c1c[nH]c2cccc(CCN3CCNCC3)c12 [Example 60] ?
Completion: 24

Prompt: Which inhibition at 1 µM reading was recorded for the compound CC1CCC[C@H](C)N1CCc1cccc2[nH]cc(S(=O)(=O)c3ccccc3)c12 (stereo in doubt) [Example 52] ?
Completion: 16

----------
The compounds listed here are annotated with their IC50.
- Target: UniProt:P28223
- Assay method text: 5-HT2A FLIPR assay, antagonism of DOI calcium response in CHO cells
- Details: read-out: 5-HT2A IC50; antagonism of 3 nM DOI, CHO cells, FLIPR
Write the numeric value and append its unit.

As a guide, the following entries are already answered.
# Structure as smiles, Measured metric, Experimental result
measured = [
    ("O=S(=O)(c1ccccc1)c1c[nH]c2cccc(CCN3CCCCC3)c12", "IC50", "180 nM"),
    ("CCN(C)CCCc1cccc2[nH]cc(S(=O)(=O)c3ccccc3)c12", "IC50", "477 nM"),
    ("CNCCc1cccc2[nH]cc(S(=O)(=O)c3ccccc3)c12", "IC50", "1100 nM"),
    ("CCCNCCc1cccc2[nH]cc(S(=O)(=O)c3ccccc3)c12", "IC50", "1080 nM"),
]

Prompt: Which IC50 reading was recorded for the compound `CC(C)NCCCc1cccc2[nH]cc(S(=O)(=O)c3ccccc3)c12` ?
Completion: 5980 nM

----------
- Target: human cloned 5-HT6 receptors (Homo sapiens)
- Construct: expressed in transfected cells; host or cells: HeLa cells
- Assay method text: 5-HT6 binding affinity, [3H]-LSD displacement on membranes of Hela cells
- Details: Table 2; read-out: 5-HT6 Ki
- Experimental: The affinity of test compounds for the 5-HT6 receptor is evaluated in the following manner. Cultured Hela cells expressing human cloned 5-HT6 receptors are harvested and centrifuged at low speed (1,000×g) for 10.0 min to remove the culture media. […] The final pellet is suspended in a small volume of Tris.HCl buffer and the tissue protein content is determined in aliquots of 10-25 microliter volumes. […]
The compounds listed here are annotated with their log10(Ki).
Hello, just confirming the data are log10 of Ki with units of nM.

As a guide, the following entries are already answered.
# Compound, Target, log10(Ki)
rows = [
    ("CCN(C)CCc1cccc2[nH]cc(S(=O)(=O)c3ccccc3)c12", "human cloned 5-HT6 receptors (Homo sapiens)", 2.55),
    ("CN(C)CCCNCCc1cccc2[nH]cc(S(=O)(=O)c3ccccc3)c12", "human cloned 5-HT6 receptors (Homo sapiens)", 1.96),
    ("CNCCc1cccc2[nH]cc(S(=O)(=O)c3ccccc3)c12", "human cloned 5-HT6 receptors (Homo sapiens)", 2.16),
    ("O=S(=O)(c1ccccc1)c1c[nH]c2cccc(CCN3CCCC3)c12", "human cloned 5-HT6 receptors (Homo sapiens)", 1.86),
    ("O=S(=O)(c1ccccc1)c1c[nH]c2cccc(CCNC3CCCCC3)c12", "human cloned 5-HT6 receptors (Homo sapiens)", 2.78),
    ("CC(C)CNCCc1cccc2[nH]cc(S(=O)(=O)c3ccccc3)c12", "human cloned 5-HT6 receptors (Homo sapiens)", 2.65),
    ("CCCNCCc1cccc2[nH]cc(S(=O)(=O)c3ccccc3)c12", "human cloned 5-HT6 receptors (Homo sapiens)", 2.33),
    ("NCCc1cccc2[nH]cc(S(=O)(=O)c3ccccc3)c12", "human cloned 5-HT6 receptors (Homo sapiens)", 3.00),
    ("CC(C)(C)CNCCc1cccc2[nH]cc(S(=O)(=O)c3ccccc3)c12", "human cloned 5-HT6 receptors (Homo sapiens)", 2.81),
    ("CN(CCc1cccc2[nH]cc(S(=O)(=O)c3ccccc3)c12)C1CCCCC1", "human cloned 5-HT6 receptors (Homo sapiens)", 2.10),
]

We now examine a further compound.
Prompt: Query for human cloned 5-HT6 receptors (Homo sapiens): what log10(Ki) does the record show for `O=S(=O)(c1ccccc1)c1c[nH]c2cccc(CCNCc3ccccc3)c12` ?
Completion: 2.09

----------
- Target: human cloned 5-HT6 receptors (Homo sapiens)
- Construct: expressed in transfected cells; host or cells: HeLa cells
- Assay method text: 5-HT6 binding affinity, [3H]-LSD displacement on membranes of Hela cells
- Details: Table 1; [3H]-LSD 3.0 nM, Hela cell membranes; read-out: Ki (nM) @ 5-HT6 receptor
Mark each entry yes if its Ki sits below 20 nM, and no for all others.

Completed entries (count: 4):
# Compound, Label
data = [
    ("CCN(CC)CCc1ccc2c(S(=O)(=O)c3ccccc3)c[nH]c2c1 [Example 97]", "yes"),
    ("CCN(CC)CCc1cccc2c(S(=O)(=O)c3ccccc3)c[nH]c12 [Example 25]", "no"),
    ("CC(C)NCCc1cccc2c(S(=O)(=O)c3ccccc3)c[nH]c12 [Example 21]", "yes"),
    ("NCCc1cccc2[nH]cc(S(=O)(=O)c3cccc(F)c3)c12 [Example 85]", "no"),
]

As a next step, examine the compound that follows.
Prompt: Ki strictly < 20 nM for this compound? O=S(=O)(c1ccccc1)c1c[nH]c2ccc(CCNC3CC3)cc12 [Example 4]
Completion: yes

Reference for the values: patent US7645752B2
